target: human recombinant KDM1A enzyme (Homo sapiens (Human), UniProt O60341); settings: read-out: KDM1A IC50 (biochemical assay)
VALUE KIND: pIC50
The scale used: pIC50 is minus the common logarithm of the concentration in molar units.

*Q* Item Nc1nnc(CN[C@@H]2C[C@H]2c2ccc(OCc3ccccc3)cc2)o1 [Compound C] has what recorded pIC50?
*A* 7.00
